Tested on: OVCAR-8
measurement description: NCI tumour cell line growth inhibition, 48 h
The source made the active and inactive calls. Rule as the data show it: active = GI50 up to about 1.1 µM and inactive = higher.
experimental endpoint: GI50

Could you report GI50 for every entry in the following list?
1. CC1=CC(=O)CC(C)(C)C1/C=C/C(C)=C/C=C/C(C)=C/C=C/C=C(C)/C=C/C=C(C)/C=C/C1=C(C)CC(O)CC1(C)C (configuration not stated)
2. CCOC(=O)CON=c1c2ccccc2ccc2ccccc12
3. COC(=O)C1=C(C(=O)OC)C(C(=O)OC)C(C(=O)OC)=C1C(=O)OC
4. CCCC(=O)Nc1cc(/C=C/C(=O)N2CC(CCl)c3c2cc([N+](=O)[O-])c2ccccc32)n(C)c1 (configuration not stated)
5. CSC(=S)N(C)c1nc(N(C)C)s[s+]1

Return:
32.2 µM (inactive)
> 100 µM (inactive)
> 100 µM (inactive)
16.5 µM (inactive)
> 100 µM (inactive)

Could you report GI50 for every entry in the following list?
1. CC(=O)O[C@H]1CC[C@@]2(C)C(=CC[C@H]3[C@@H]4C[C@H](N5CCN(C)CC5)[C@H](OC(C)=O)[C@@]4(C)CC[C@@H]32)C1
2. CC(C)=CC(C)C(C(O)CCC1(c2ccoc2)OCCO1)S(=O)(=O)c1ccccc1 (configuration not stated)
3. Cc1ccc(S(=O)(=O)Nc2ccccc2C(C)(C)C)cc1
4. CSC1=C(c2ccc(Cl)cc2)SC(N2CCCCC2)N1c1ccc([N+](=O)[O-])cc1 (configuration not stated)
5. CC1(C)C(=O)/C=C\C(=O)C(C)(C)C2=CC=C(O2)C(C)(C)C(=O)/C=C\C(=O)C(C)(C)C2=CC=C1O2

Return:
15.6 µM (inactive)
> 100 µM (inactive)
29.6 µM (inactive)
32.1 µM (inactive)
> 100 µM (inactive)

Could you report GI50 for every entry in the following list?
1. COc1ccc2[nH]c3c(c2c1)CCN(C)CC3
2. Cc1c(F)c(N)c2c(=O)cc(-c3ccc(NC(=O)CN(C)C)c(F)c3)oc2c1F
3. COc1cc2ccccc2oc1=O
4. Clc1ccc2c(Cl)ncnc2c1
5. N#CCCN(CCC#N)c1ccc(/C=C2\N=C(CN3C(=O)c4ccccc4C3=O)OC2=O)cc1
6. CN(C)/C=N\c1cccc2c1NSN2
7. COc1ccc(/C=C/C(=O)c2cc(C(C)(C)C)c(O)c(C(C)(C)C)c2)cc1OC
8. O=C1[C@@H]2[C@@H](c3ccccc3)[C@]2(Cl)C(=O)[C@H]2[C@H](c3ccccc3)[C@@]12Cl

Return:
> 100 µM (inactive)
38.5 µM (inactive)
> 100 µM (inactive)
> 100 µM (inactive)
> 100 µM (inactive)
> 100 µM (inactive)
10.5 µM (inactive)
> 100 µM (inactive)

---

Can you tell me GI50 for the items I'm about to list?
Tested on: 786-0
measurement description: NCI tumour cell line growth inhibition, 48 h
Calls of active or inactive are those of the source. Rule as the data show it: active = GI50 up to about 1.1 µM and inactive = higher.

- compound: "COC(=O)C1(C(=O)OC)CC(=O)c2cc3c(cc2-c2c(cc(OC)c(OC)c2OC)C1)OCO3"
  assay system: "786-0"
  experimental endpoint: "GI50"
  observed: "> 211 µM (inactive)"
- compound: "O=[N+]([O-])c1ccc(C[P+](c2ccccc2)(c2ccccc2)c2ccccc2)cc1"
  assay system: "786-0"
  experimental endpoint: "GI50"
  observed: "> 100 µM (inactive)"
- compound: "COCc1c(CO)cnc(C)c1OC1OC(CO)C(O)C(O)C1O (stereo unspecified)"
  assay system: "786-0"
  experimental endpoint: "GI50"
  observed: "> 100 µM (inactive)"
- compound: "CCOC(=O)C1CC/C(=C(/C#N)C(=O)OC)N1 (stereo unspecified)"
  assay system: "786-0"
  experimental endpoint: "GI50"
  observed: "> 100 µM (inactive)"
- compound: "N[C@H](C(=O)O)[C@@H](Cl)CC(=O)O"
  assay system: "786-0"
  experimental endpoint: "GI50"
  observed: "> 100 µM (inactive)"

Let's switch to this compound now.
Enquiry: Value lookup for GI50; key = `CCCc1nc2c(n1CC)C(=O)c1ccccc1C2=O`
Return: > 100 µM (inactive)

---

Tested on: HOP-92
measurement description: NCI tumour cell line growth inhibition, 48 h
Activity calls are given as the source filed them. Rule as the data show it: active = GI50 up to about 1.1 µM and inactive = higher.
Can you tell me GI50 for the items I'm about to list?

Could you report GI50 for every entry in the following list?
1. CCCCCCCCCCCC[N+]12CC[N+](CCN)(CC1)CC2
2. O=C(O)C(SC1=NC(=O)C2(NN1)c1ccccc1-c1ccccc12)SC1=NC(=O)C2(NN1)c1ccccc1-c1ccccc12

Return:
["29.4 µM (inactive)", "> 10 µM (inactive)"]

Could you report GI50 for every entry in the following list?
1. CCCCCCCCCCCCCCCCP(=O)(O)OCC(N)C(=O)O (stereo unspecified)
2. CCCCN(CCCC)C(=O)C(=O)C(C(=O)C(=O)OC)c1nc2ccccc2o1 (stereo unspecified)
3. O=S(=O)(CCBr)CCBr

Return:
1: 23.7 µM (inactive); 2: > 100 µM (inactive); 3: 6.21 µM (inactive)

Could you report GI50 for every entry in the following list?
1. COC(=O)/C(=N\N)C(C(=O)C(=O)Nc1cc(Cl)ccc1Cl)c1nc2ccc([N+](=O)[O-])cc2nc1O (stereo unspecified)
2. C=CC(=O)N1C/C(=C\c2ccc(Cl)cc2)C(=O)/C(=C/c2ccc(Cl)cc2)C1
3. CC1(C)OCC(C2OC(C)(C)OC2[C@H]2O[C@@]3(O)[C@H]4[C@H](C=CC[C@@H]42)[C@@H](OCc2ccccc2)[C@H](OCc2ccccc2)[C@H]3OCc2ccccc2)O1 (stereo partly specified)
4. COc1cc(O)c(Cc2ccccc2O)c(O)c1C(=O)CCc1ccccc1

Return:
1. > 100 µM (inactive)
2. 1.54 µM (inactive)
3. 44.2 µM (inactive)
4. 3.99 µM (inactive)

Could you report GI50 for every entry in the following list?
1. O=C1c2ccccc2C2(O)Nc3cc(O)ccc3C12O (stereo unspecified)
2. CNC(=S)N/N=C(/C)CCC/C(C)=N/NC(=S)NC
3. N#Cc1ccc(OCc2ccc3nc(-c4ccccc4)c(Cl)nc3c2)cc1
4. CC(=O)N1C(=O)/C(=C\C(=O)c2ccc(Cl)cc2)c2ccccc21
5. O=S(=O)(CCCCl)SCCCCl
6. Cc1cc(C)c2c(c1)CC1(Cc3c(C)ccc(C)c3C1=O)C2=O (stereo unspecified)

Return:
> 100 µM (inactive)
> 100 µM (inactive)
> 100 µM (inactive)
18.3 µM (inactive)
25 µM (inactive)
> 100 µM (inactive)

Enquiry: Give HOP-92 GI50 for `CN(C)c1nc(N(C)C)n2nc(-c3ccccc3[N+](=O)[O-])nc2n1`
Return: > 100 µM (inactive)

---

System: NCI-H460
measurement description: NCI tumour cell line growth inhibition, 48 h
Activity calls are given as the source filed them. Cut-off read from the data, not from the text of the source: active = GI50 up to about 1.1 µM and inactive = higher.
experimental endpoint: GI50

Solved cases below.
- compound: "CC(=O)OC1=NN=C2COC(c3ccccc3OC(C)=O)=NN2C1"
  observed: "> 50 µM (inactive)"
- compound: "O=S(=O)(CCCCl)SCCCCl"
  observed: "39.4 µM (inactive)"
- compound: "CC1=NNC(=O)C1C1C(=O)NN=C(c2c[nH]c3ccccc23)C1Br (stereo not given)"
  observed: "38.7 µM (inactive)"
- compound: "COC(=O)c1oc([N+](=O)[O-])c(Cl)c1Cl"
  observed: "17.2 µM (inactive)"
- compound: "Cc1cccc(-c2nnc3s/c(=C\\c4ccc(N(C)C)cc4)c(=O)n23)c1"
  observed: "> 100 µM (inactive)"
- compound: "Nn1c(-c2ccccc2)n[nH]c1=O"
  observed: "> 100 µM (inactive)"
- compound: "Cc1nn(-c2ccccc2)c2c1C(c1ccc(Cl)cc1)NC(=S)N2 (stereo not given)"
  observed: "23 µM (inactive)"
- compound: "NC(=O)C(=CN1CC(=O)NC1=S)C(N)=O"
  observed: "> 100 µM (inactive)"

Could you report GI50 for every entry in the following list?
1. O=C(NCCCCCCNC(=O)n1cc(F)c(=O)[nH]c1=O)NCCCOCCOCCOCCOCCOCCOCCOCCOCCOCCOCCOCCOCCOCCOCCOCCOCCOCCOCCOCCOCCOCCCNC(=O)C(O)C(O)C(OC1OC(CO)C(O)C(O)C1O)C(O)CO (stereo not given)
2. Cc1cc(/N=N/c2c(O)ccc3ccccc23)ccc1/N=N/c1cccc([N+](C)(C)C)c1

Return:
["3.58 µM (inactive)", "9.42 µM (inactive)"]

---

Can you tell me GI50 for the items I'm about to list?
Tested on: SR
measurement description: NCI tumour cell line growth inhibition, 48 h
Activity calls are given as the source filed them. No stated cut-off is given here; in the data, active = GI50 up to about 1.1 µM and inactive = higher.

- molecule: "CC[N+]1(C)CCC(O)(c2ccc(C)cc2)C(C(=O)c2ccc(C)cc2)C1 (stereo not given)"
  assay system: "SR"
  GI50: "16.2 µM (inactive)"

Could you report GI50 for every entry in the following list?
1. CCC1(CCSC(=N)N)C(=O)NC(=O)NC1=O
2. CSC1=C(C(=O)Nc2ccccc2)C(N)=NC1=O
3. Cc1cc2c3ccccc3n3c2c2c1OC1(C)CCC(C2C1)C3(C)C (stereo not given)
4. COc1cccc(C=C2N=C(c3ccccc3)N(n3c(-c4ccccc4)nc4ccccc4c3=O)C2=O)c1
5. Oc1ccc([Te]CCNCC[Te]c2ccc(O)cc2)cc1
6. N=C(N)NS(=O)(=O)c1ccc(NNc2c3ccccc3nc3c(C(=O)Nc4ccc(S(=O)(=O)Nc5ncccn5)cc4)cccc23)cc1
7. COC(C/C(=C/CO[Si](C(C)C)(C(C)C)C(C)C)C(=O)N(C(=O)OC(C)(C)C)c1ccccc1I)OC
8. C=CCn1c(=O)c2ccccc2[n+]2c(C)c(C(=O)OCC)sc12

Return:
1: > 100 µM (inactive); 2: 32.4 µM (inactive); 3: > 25 µM (inactive); 4: 33.5 µM (inactive); 5: 5.19 µM (inactive); 6: > 10 µM (inactive); 7: 34.4 µM (inactive); 8: > 100 µM (inactive)

Could you report GI50 for every entry in the following list?
1. N#Cc1ccc(OCc2ccc3nc(-c4ccccc4)c(Cl)nc3c2)cc1
2. CC1CN(CCO)CC(C)O1 (stereo not given)
3. Cc1c(CCOC=O)c(=O)[nH]c2nncn12
4. NC(CSCc1ccccc1)C(=O)O (stereo not given)

Return:
1: > 100 µM (inactive); 2: > 100 µM (inactive); 3: > 100 µM (inactive); 4: > 100 µM (inactive)

Could you report GI50 for every entry in the following list?
1. COc1cc(Cl)cc(O)c(=O)c1OC
2. COc1cccc2c1C(=N)c1c(O)c3c(c(O)c1C2=O)C[C@@](O)(C(C)=O)C[C@@H]3OC1CC(N)C(O)C(C)O1 (stereo not given in full)

Return:
1: 2.2 µM (inactive); 2: 0.00466 µM (active)
